target: full length recombinant Pim-2 (Homo sapiens (Human)); experiment: Pim enzyme assay (HTRF, phosphorylation of biotinylated-BAD (S112) peptide), Pim-2; assay type: biochemical; settings: Pim-2 enzyme assay; read-out: Pim2_IC50
Sequence (Q9P1W9 whole entry): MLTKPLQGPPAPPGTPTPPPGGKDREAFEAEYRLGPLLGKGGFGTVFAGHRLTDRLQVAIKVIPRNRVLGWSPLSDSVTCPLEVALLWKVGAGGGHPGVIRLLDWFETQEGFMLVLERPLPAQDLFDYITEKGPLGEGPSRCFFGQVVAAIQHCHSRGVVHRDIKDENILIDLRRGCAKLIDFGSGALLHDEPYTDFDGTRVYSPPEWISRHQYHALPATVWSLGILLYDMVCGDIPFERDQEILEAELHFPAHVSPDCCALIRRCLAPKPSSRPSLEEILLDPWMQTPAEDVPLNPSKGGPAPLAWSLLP
Attribute: IC50

Smiles str	IC50 [µM]
Cc1ccn(-c2cnc(-c3c[nH]c4ccc(-c5nnc(N)s5)cc34)cn2)n1	2.9
Nc1nnc(-c2ccc3[nH]cc(-c4nccc(-c5ccccc5Cl)n4)c3c2)o1	0.0192
COC[C@@H]1CCCN1c1ccnc(-c2c[nH]c3ccc(-c4nnc(N)o4)cc23)n1	0.0268
COC[C@H]1CCCN1c1ccnc(-c2c[nH]c3ccc(-c4nnc(N)o4)cc23)n1	0.0257

* * *

biological target: full length recombinant Pim-1 (Homo sapiens (Human), UniProt P11309); assay: Pim enzyme assay (HTRF, phosphorylation of biotinylated-BAD (S112) peptide), Pim-1; assay type: biochemical; conditions: Pim-1 enzyme assay; read-out: Pim_1_IC50
Sequence (P11309 whole entry): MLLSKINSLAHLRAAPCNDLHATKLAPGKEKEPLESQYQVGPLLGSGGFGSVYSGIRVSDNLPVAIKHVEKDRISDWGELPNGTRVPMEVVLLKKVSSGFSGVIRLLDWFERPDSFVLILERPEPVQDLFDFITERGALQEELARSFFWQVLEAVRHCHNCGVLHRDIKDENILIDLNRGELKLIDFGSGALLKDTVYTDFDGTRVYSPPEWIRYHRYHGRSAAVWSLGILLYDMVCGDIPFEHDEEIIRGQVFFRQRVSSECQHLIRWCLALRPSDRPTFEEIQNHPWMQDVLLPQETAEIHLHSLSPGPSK
Experimental endpoint: IC50 (nM)

Smiles str	Quantitative result
c1cc(C2CC2)nc(-c2c[nH]c3ccc(-c4nnc(C5CC5)o4)cc23)n1	7.58
Nc1nnc(-c2ccc3[nH]cc(-c4cccc(N5CCCCC5)n4)c3c2)s1	40.5
Nc1nnc(-c2ccc3[nH]cc(-c4cncc(N5CCOCC5)n4)c3c2)o1	8.91
Nc1nnc(-c2ccc3[nH]cc(-c4nccc(Nc5ccccc5)n4)c3c2)o1	9.41

* * *

biological target: full length recombinant Pim-3 (Homo sapiens (Human), UniProt Q86V86); test: Pim enzyme assay (HTRF, phosphorylation of biotinylated-BAD (S112) peptide), Pim-3; format: biochemical; settings: read-out: Pim3 IC50
Attribute: IC50

Compound	IC50
Nc1nnc(-c2ccc3[nH]cc(-c4cccc(-c5ccc(Cl)cc5)n4)c3c2)s1 [Example 31]	13.6 nM
CC(C)Oc1cccc(-c2c[nH]c3ccc(-c4nnc(N[C@@H]5CCCNC5)s4)cc23)n1 [Example 35, 2,2,2-trifluoroacetate]	1.84 nM
O=c1[nH]nc(-c2ccc3[nH]cc(-c4cncc(C5CC5)n4)c3c2)o1 [Example 38, 2,2,2-trifluoroacetate]	37.7 nM
CC(C)Oc1cccc(-c2c[nH]c3ccc(-c4nnc(N5CC[C@@H](N)C5)s4)cc23)n1 [Example 33, 2,2,2-trifluoroacetate]	1.32 nM

* * *

biological target: full length recombinant Pim-2 (Homo sapiens (Human)); assay: Pim enzyme assay (HTRF, phosphorylation of biotinylated-BAD (S112) peptide), Pim-2; type: biochemical; settings: Pim-2 enzyme assay; read-out: Pim2_IC50
Classify: y when IC50 is strictly less than 20 nM; n when IC50 is not.

Molecule	Label value
c1cc2[nH]cc(-c3cncc(C4CC4)n3)c2cc1-c1nnc(NC2CNC2)o1 [Example 247]	y
CN1CCN(c2cnc(-c3c[nH]c4ccc(-c5nnc(N)s5)cc34)cn2)CC1 [Example 178]	n
C[C@H]1COCCN1c1nnc(-c2ccc3[nH]cc(-c4cncc(C5CC5)n4)c3c2)o1 [Example 248]	n
Nc1nnc(-c2ccc3[nH]cc(-c4cncc(N5CCCCC5)n4)c3c2)s1 [Example 198]	y
CC(C)Nc1nnc(-c2ccc3[nH]cc(-c4nccc(N5CCN(C)C(=O)C5)n4)c3c2)o1 [Example 61]	n
Nc1nnc(-c2ccc3[nH]cc(-c4nccc(C5CC5)n4)c3c2)o1 [Example 94]	y
CC1CCCN1c1ccnc(-c2c[nH]c3ccc(-c4nnc(N)o4)cc23)n1 (centres unmarked) [Example 97]	y
